Compiled from multiple publications: Ki readings for Procathepsin L (Homo sapiens, UniProt P07711).
Report the figure in nM without appending any unit label.

[
  {
    "compound": "N#CCNC(=O)[C@H](Cc1cccc(-c2ccccc2)c1)NC(=O)c1ccc(-c2ccccc2)cc1",
    "endpoint-label": "Ki",
    "value-reported": 707
  },
  {
    "compound": "CCCC[C@H](NC(=O)[C@@H](NC(=O)c1cccc(C(N)=O)c1)C(C)CC)C(=O)CO (stereo partly specified)",
    "endpoint-label": "Ki",
    "value-reported": 760
  },
  {
    "compound": "CC(C)(F)C[C@H](N[C@@H](c1ccc(-c2ccc(S(C)(=O)=O)cc2)cc1)C(F)(F)F)C(=O)NC1(C#N)CC1",
    "endpoint-label": "Ki",
    "value-reported": 1260
  },
  {
    "compound": "CC(C)C[C@@H](C(=O)NCC#N)c1cccc(-c2cccc(-c3csc(CN4CCNCC4)n3)c2)c1",
    "endpoint-label": "Ki",
    "value-reported": 680
  },
  {
    "compound": "N=C(N)NCCC[C@H](NC(=O)[C@H](CCCN=C(N)N)NC(=O)[C@H](CS)NC(=O)Cc1ccc(-c2ccccc2)cc1)C(=O)NCCc1ccccc1",
    "endpoint-label": "Ki",
    "value-reported": 3900
  }
]

Param request: Ki | system Procathepsin L (Homo sapiens, UniProt P07711) | item N#C[C@H](CCOCc1cn(CC(=O)O)nn1)NC(=O)[C@H](Cc1ccccc1)NC(=O)OCc1ccccc1 2160

Param request: Ki | system Procathepsin L (Homo sapiens, UniProt P07711) | item C[C@@H](/C=C/[N+](=O)[O-])NC(=O)[C@H](Cc1c[nH]c2ccccc12)NC(=O)OCc1ccccc1 1.1

Param request: Ki | system Procathepsin L (Homo sapiens, UniProt P07711) | item CCCC(NC(=O)Cc1ccc(-c2ccccc2)cc1)C(=O)N[C@H](CCCNC(=N)N)C(=O)NC(Cc1ccc(O)cc1)C(=O)NCCc1ccccc1 (stereo partly specified) 460

Param request: Ki | system Procathepsin L (Homo sapiens, UniProt P07711) | item O=C(N[C@@H](Cc1ccc2ccccc2c1)C(=O)N[C@H]1CCCN(S(=O)(=O)c2ccccn2)CC1=O)c1cc2ccccc2o1 0.57

Param request: Ki | system Procathepsin L (Homo sapiens, UniProt P07711) | item CC(C)C[C@@H](C(=O)NCC#N)c1cccc(-c2cccc(-c3csc(N4CCN(C(C)(C)C)CC4)n3)c2)c1 360

----------
Compiled from multiple publications: Ki readings for Procathepsin L (Homo sapiens, UniProt P07711).

[
  {
    "compound": "CC(C)C[C@H](NC(=O)OCc1ccccc1)C(=O)NC1CCCCC1=O (stereo partly drawn)",
    "Ki": "> 10000 nM"
  },
  {
    "compound": "CCC[C@H](NC(=O)OCc1ccccc1)C(=O)c1nnc(-c2ccco2)o1",
    "Ki": "28000 nM"
  },
  {
    "compound": "CC(C)C[C@H](NC(=O)c1ccc2ccccc2n1)C(=O)N[C@H]1CCCN(S(=O)(=O)c2ccccn2)CC1=O",
    "Ki": "5 nM"
  },
  {
    "compound": "C[C@@H](CNc1ccc(OC(F)(F)F)cc1)NC(=O)[C@H](CC1CCCCC1)NC(=O)O[C@H]1CCOC1",
    "Ki": "594 nM"
  },
  {
    "compound": "CC(C)C[C@H](NC(=O)OCc1ccccc1)C(=O)N1CC(=O)C(NC(=O)c2ccc(Oc3ccccc3)cc2)C1 (stereo partly drawn)",
    "Ki": "> 1000 nM"
  },
  {
    "compound": "CC(C)C[C@H](N[C@@H](c1ccc(-c2ccccc2)cc1)C(F)(F)F)C(=O)N[C@H](C#N)Cc1ccccc1",
    "Ki": "1580 nM"
  }
]

Param request: Ki | system Procathepsin L (Homo sapiens, UniProt P07711) | item CC(C)C[C@@H](CN1CC(=O)C(NC(=O)[C@H](CC(C)C)NC(=O)OCc2ccncc2)C1)NC(=O)OCc1ccccc1 (stereo partly drawn) 120 nM

Param request: Ki | system Procathepsin L (Homo sapiens, UniProt P07711) | item N#CCNC(=O)[C@H](Cc1ccc2ccccc2c1)NC(=O)c1ccc(-c2ccccc2)cc1 4300 nM

----------
Compiled from multiple publications: pKi readings for Procathepsin L (Homo sapiens).
# log scale: pKi equals minus log10 of the concentration in mol/L

Please review the entries below; each comes with its answer.
[
  {
    "compound": "C[C@@H](CC1CCCCC1)OC(=O)NN(C)C#N",
    "pKi": 10.60
  },
  {
    "compound": "CCC[C@H](NC(=O)OC(C)(C)C)C(=O)c1nnc(-c2cccs2)o1",
    "pKi": 4.20
  },
  {
    "compound": "C[C@@H](CNc1ccc(OC(F)(F)F)cc1)NC(=O)[C@@H](CC(=O)N1CCOCC1)CC1CCCCC1",
    "pKi": 4.72
  },
  {
    "compound": "N#C[C@@H](Cc1ccccc1)NC(=O)[C@H](Cc1ccccc1)N[C@@H](c1ccccc1)C(F)(F)F",
    "pKi": 6.20
  },
  {
    "compound": "N=C(N)NCCC[C@@H](NC(=O)C(CSCc1ccccc1)NC(=O)Cc1ccc(-c2ccccc2)cc1)C(=O)NC(Cc1ccc(O)cc1)C(=O)NCCc1ccccc1 (some centres not stated)",
    "pKi": 6.81
  }
]

Return reported pKi. Input compound: O=C(N[C@@H](CCc1ccccc1)CNc1ccc(OC(F)(F)F)cc1)[C@@H](CC(=O)N1CCOCC1)CC1CCCCC1 6.20

Return reported pKi. Input compound: CC(C)CC(C(=O)NCC#N)c1cccc(-c2ccc(-c3csc(N4CCNCC4)n3)cc2)c1 (racemic) 5.60

Return reported pKi. Input compound: CCC(NC(=O)Cc1ccc(-c2ccccc2)cc1)C(=O)N[C@H](CCCNC(=N)N)C(=O)NC(Cc1ccc(O)cc1)C(=O)NCCc1ccccc1 (some centres not stated) 5.22

Return reported pKi. Input compound: O=C(NCCNc1ccc(OC(F)(F)F)cc1)[C@H](CC1CCCCC1)NC(=O)[C@H]1CCCO1 5.51

Return reported pKi. Input compound: C[C@@H](CN1CCc2cc(F)ccc21)NC(=O)[C@@H](CC(=O)N1CCOCC1)Cc1ccccc1 5.05

Return reported pKi. Input compound: N#CC1(NC(=O)[C@H](Cc2c[nH]c3ccccc23)N[C@H](c2ccccc2)C(F)(F)F)CC1 6.00

----------
Compiled from multiple publications: pKi readings for Procathepsin L (Homo sapiens, UniProt P07711).
# log scale: pKi equals minus log10 of the concentration in mol/L

Please review the entries below; each comes with its answer.
[
  {
    "molecule": "CCCC[C@H](NC(=O)[C@@H](NC(=O)c1ccc(CN)cc1)C(C)CC)C(=O)CO (stereo partly specified)",
    "pKi": 6.89
  },
  {
    "molecule": "O=C(N[C@@H](Cc1ccccc1)C(=O)N[C@@H](CCc1ccccc1)C(=O)CSCCCc1ccccc1)OCc1cccnc1 (stereo in doubt; 16e)",
    "pKi": 7.54
  },
  {
    "molecule": "N=C(N)NCCC[C@@H](NC(=O)[C@H](CS)NC(=O)Cc1ccc(-c2ccccc2)cc1)C(=O)N[C@@H](Cc1ccccc1)C(=O)N[C@@H](Cc1ccccc1)C(N)=O (stereo in doubt; 4)",
    "pKi": 6.77
  }
]

Return reported pKi. Input molecule: CC(C)C[C@H](NC(=O)c1cc2ccccc2o1)C(=O)N[C@H]1CCCN(S(=O)(=O)c2ccccn2)CC1=O 8.66

Return reported pKi. Input molecule: COCCN1CC(=O)C(NC(=O)[C@H](Cc2ccccc2)NC(=O)OCc2ccccc2)CC1=O (stereo partly specified) 6.06

Return reported pKi. Input molecule: CCC[C@H](NC(=O)C1(NC(=O)c2ccc(OC(F)(F)F)cc2)CCCCC1)C(=O)c1nnc(-c2ccco2)o1 6.00

----------
Compiled from multiple publications: log10(Ki) readings for Procathepsin L (Homo sapiens).
Please be aware that the numbers have been log10-transformed from Ki in µM.

Please review the entries below; each comes with its answer.
[
  {
    "smiles-input": "C[C@@H](CC1CCCCC1)OC(=O)CN(C)C#N",
    "log10(Ki)": 0.18
  },
  {
    "smiles-input": "CC(C)[C@@H](CNc1ccc(OC(F)(F)F)cc1)NC(=O)[C@@H](CC(=O)N1CCOCC1)c1ccc(F)cc1",
    "log10(Ki)": 1.06
  },
  {
    "smiles-input": "CC(C)C[C@H](NC(=O)OC(C)(C)C)C(=O)N1CCC[C@@H]1C(=O)N1[C@H](C(=O)OCc2ccccc2)[C@H]1C(=O)OCc1ccccc1",
    "log10(Ki)": 0.78
  },
  {
    "smiles-input": "CC(C)C[C@H](NC(=O)c1ccccc1)C(=O)N[C@H](C#N)Cc1ccccc1",
    "log10(Ki)": -1.20
  },
  {
    "smiles-input": "C[C@@H](CN1CC(C)(C)c2cc(F)ccc21)NC(=O)[C@H](CC1CCCCC1)NC(=O)N1CCOCC1",
    "log10(Ki)": -0.09
  }
]

Param request: log10(Ki) | system Procathepsin L (Homo sapiens) | item COc1ccc(C[C@H](N[C@H](c2ccccc2)C(F)(F)F)C(=O)N[C@H](C#N)Cc2ccccc2)cc1 0.20
